From: patent US11524966B1

For each entry below, report its IC50 value.
# Subject Of Test: USP25 (USP25-His6, Boston Biochem E-546) (Homo sapiens, UniProt Q9UHP3)
# Construct: His6; purchased Boston Biochem E-546
# Sequence (Q9UHP3 whole entry): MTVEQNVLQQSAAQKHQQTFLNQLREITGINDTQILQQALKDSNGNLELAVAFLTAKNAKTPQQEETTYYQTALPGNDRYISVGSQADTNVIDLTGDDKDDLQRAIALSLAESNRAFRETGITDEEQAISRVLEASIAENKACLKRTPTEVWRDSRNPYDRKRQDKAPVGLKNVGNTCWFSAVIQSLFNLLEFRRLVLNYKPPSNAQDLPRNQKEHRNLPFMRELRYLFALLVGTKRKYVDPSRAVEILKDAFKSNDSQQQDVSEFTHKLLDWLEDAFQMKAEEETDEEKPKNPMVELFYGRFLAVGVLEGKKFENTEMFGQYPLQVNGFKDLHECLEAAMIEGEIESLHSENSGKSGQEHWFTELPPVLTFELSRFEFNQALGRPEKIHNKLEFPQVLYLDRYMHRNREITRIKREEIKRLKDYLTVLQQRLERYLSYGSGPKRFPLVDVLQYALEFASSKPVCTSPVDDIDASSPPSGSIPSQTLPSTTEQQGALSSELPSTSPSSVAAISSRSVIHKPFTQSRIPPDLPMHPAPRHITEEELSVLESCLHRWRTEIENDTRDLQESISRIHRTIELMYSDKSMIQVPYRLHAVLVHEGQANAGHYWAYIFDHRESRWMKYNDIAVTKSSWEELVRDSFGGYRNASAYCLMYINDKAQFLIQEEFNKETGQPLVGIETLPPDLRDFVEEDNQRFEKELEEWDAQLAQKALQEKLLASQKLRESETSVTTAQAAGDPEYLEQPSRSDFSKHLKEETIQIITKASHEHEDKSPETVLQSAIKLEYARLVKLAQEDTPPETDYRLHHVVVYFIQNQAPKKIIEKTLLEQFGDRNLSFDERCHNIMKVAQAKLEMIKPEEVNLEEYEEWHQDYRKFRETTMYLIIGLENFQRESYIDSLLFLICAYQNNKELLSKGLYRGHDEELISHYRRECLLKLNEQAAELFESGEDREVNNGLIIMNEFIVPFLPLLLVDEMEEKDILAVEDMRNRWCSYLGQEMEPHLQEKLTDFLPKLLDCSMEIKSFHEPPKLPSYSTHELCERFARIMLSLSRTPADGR
# Assay Comment: Ubiquitin-Rhodamine 110 Assay for USP25 Activity, Example A-2
# Assay type: biochemical
# Measurement Parameters: Ubiquitin-Rhodamine 110 assay, Example A-2; read-out: USP25 A-2 IC50 range

Hello, I would appreciate it if you could give IC50 for each entry below.
1. CCn1ccc2cc(C(=O)N[C@@H]3CCc4cc(N5CC6CCC(C5)N6)ccc4C3)nnc21 (single isomer, unassigned) [Example 11-23]
2. COC[C@H]1CN(c2ccc3c(c2)OC[C@H](NC(=O)c2sc4nc(C)cc(C)c4c2N)C3)C[C@H]1N [Example 276]
3. COC[C@@H]1CN(c2ccc3c(c2)OC[C@H](NC(=O)c2sc4nc(C)cc(C)c4c2N)C3)C[C@@H]1N [Example 275]
4. COc1ccn2ncc(C(=O)N[C@H]3COc4cc(N5CCNCC5)ccc4C3)c2c1 [Example 461]
5. Cc1cc(C)c2c(N)c(C(=O)N[C@H]3COc4cc(N5CCNCC5)cc(F)c4C3)sc2n1 [Example 10-9]

Given back:
1. > 2000 nM
2. 50 to 200 nM
3. 200 to 2000 nM
4. > 2000 nM
5. 50 to 200 nM

Hello, I would appreciate it if you could give IC50 for each entry below.
1. Cc1ccc2c(N)c(C(=O)N[C@H]3COc4c(F)c(N5CCNCC5)cc(F)c4C3)sc2n1 [Example 55]
2. Cc1ccc2c(N)c(C(=O)N[C@H]3COc4cc(N5CC[C@@H]6CC[C@H](N)C[C@@H]65)ccc4C3)sc2n1 [Example 234]

Given back:
["50 to 200 nM", "50 to 200 nM"]
